Biological target: Serine/threonine-protein phosphatase 5 (Homo sapiens)
Experiment: PP5 inhibition of phosphorylase dephosphorylation, late-stage follow-up, selectivity assay for PP1 inhibitor project, biochemical, radiolabel, glycogen phosphorylase substrate, set 2 (AID 652225)
Details: purified PP5c, 32P-glycogen phosphorylase dephosphorylation, scintillation
Active and inactive are the calls of the source.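 How the source made its calls: active means compounds inhibiting PP5 with an IC50 below 50 µM; inactive means IC50 of 50 µM or more.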
Output constraint: value belongs to active, inactive

CCOC(=O)c1sc2nc3c(SCC(=O)O)cc(C(=O)c4cc(F)ccc4O)cn3c(=O)c2c1C | inactive

Consider the record given below.
Exercise: Write down the call the test reported for this compound. Item: CN1CCN(C(c2ccccn2)c2cc(Cl)c3cccnc3c2O)CC1 (stereo not given)
Solution: inactive
